Record form. Attribute: max response. Fill in for each entry.
# Test system: CRL-7250
# test.method.notes: Cytotoxic Profiling of Annotated Libraries Using Quantitative High-Throughput Screening (AID 1296008); note: % is set by controls: 0 for no effect and ±100 for the full control effect; nearly all actives have a fitted effect of over 60% in size
# details: Five cell lines viability, CellTiter-Glo ATP luminescence, 48-72 h; hits give low values
# Method: Cell-based phenotypic screening is a commonly used approach to discover biological pathways, novel drug targets, chemical probes and high-quality hit-to-lead molecules. […] A pintool (Kalypsys) was used to transfer 23 nL of compound solution to the 1536-well assay plates. […] Plates were left at room temperature for 10 min before imaging the ATP-coupled luminescence using a ViewLux microplate imager (PerkinElmer, Waltham, MA).
Records with an inconclusive call do not appear.
Numeric only. Scale: %

QUERY: Determine from records and report max response for "CCOC(=O)NC(C)(C)Cc1ccc(Cl)cc1"
RESULT: -4.28

QUERY: Determine from records and report max response for "COc1cc(C[C@@H](C)N)c(OC)cc1Br"
RESULT: 2.12

QUERY: Determine from records and report max response for "C[C@]12C=CC(=O)C=C1CC[C@@H]1[C@@H]2CC[C@@]2(C)[C@H]1CC[C@]2(C)O"
RESULT: -25.8

QUERY: Determine from records and report max response for "CCO[C@H]1O[C@@H]2OC3(C)CC[C@H]4[C@H](C)CC[C@@H]([C@H]1C)[C@@]24OO3"
RESULT: 3.38

QUERY: Determine from records and report max response for "CC[C@H]1C[C@H]2[C@@H]3CCC4=CC(=O)CC[C@@H]4[C@H]3CC[C@]2(C)[C@H]1O"
RESULT: -11.6

QUERY: Determine from records and report max response for "CCN(Cc1ccc(Cl)nc1)/C(=C/[N+](=O)[O-])NC"
RESULT: -14.2

QUERY: Determine from records and report max response for CCN(CC)C(C)C(=O)c1ccccc1 (centres undefined)
RESULT: -0.537

QUERY: Determine from records and report max response for "C[C@]12CC[C@H]3[C@@H](CCC4=CC(=O)CC[C@@H]43)[C@@H]1CC[C@@H]2O"
RESULT: -5

QUERY: Determine from records and report max response for CCC1(c2cccc(O)c2)CCCCN(C)C1 (centres undefined)
RESULT: -9.91

QUERY: Determine from records and report max response for "CC[C@H]1C[C@@H]2C[C@H]3c4[nH]c5ccc(OC)cc5c4CCN(C2)[C@@H]13"
RESULT: 1.28

QUERY: Determine from records and report max response for "COc1ccc2[nH]cc(CCN(C(C)C)C(C)C)c2c1"
RESULT: -1.26

QUERY: Determine from records and report max response for "CCC1(CC)C(=O)NC(=O)NC1=O"
RESULT: -2.88

QUERY: Determine from records and report max response for "CN1C(=O)[C@@H](NC(=O)c2cc3ccccc3[nH]2)N=C(c2ccccc2)c2ccccc21"
RESULT: -23.4

QUERY: Determine from records and report max response for "CCOC(=O)C1(c2ccccc2)CCN(CCc2ccc(N)cc2)CC1"
RESULT: -7.28

QUERY: Determine from records and report max response for CC1Sc2c(C(=O)O)c(=O)c3cc(F)c(N4CCNCC4)cc3n21 (centres undefined)
RESULT: -1.22

QUERY: Determine from records and report max response for "COc1ccc2c(C(=O)c3ccc(Cl)cc3)c(C)n(CC(=O)O)c2c1"
RESULT: -9.6

QUERY: Determine from records and report max response for CC(CC(C(N)=O)(c1ccccc1)c1ccccc1)N(C)C (centres undefined)
RESULT: -1.58

QUERY: Determine from records and report max response for "CCC(=O)C(CCN(C)C)(c1ccccc1)c1ccccc1"
RESULT: -11.9

QUERY: Determine from records and report max response for "COP(=S)(OC)Oc1ccc(Sc2ccc(OP(=S)(OC)OC)cc2)cc1"
RESULT: -0.305

QUERY: Determine from records and report max response for CCOC(=O)NC(O)C(Cl)(Cl)Cl (centres undefined)
RESULT: 0.547

QUERY: Determine from records and report max response for "OC(O)C(Cl)(Cl)Cl"
RESULT: -3.66

QUERY: Determine from records and report max response for "CCOC(=O)C(c1c(O)c2ccccc2oc1=O)c1c(O)c2ccccc2oc1=O"
RESULT: -6.62

QUERY: Determine from records and report max response for CN(C)C(=O)Oc1cc(OC(=O)N(C)C)cc(C(O)CNC(C)(C)C)c1 (centres undefined)
RESULT: -6.2

QUERY: Determine from records and report max response for "Cc1ccc(N=CN(C)C=Nc2ccc(C)cc2C)c(C)c1"
RESULT: -6.67

QUERY: Determine from records and report max response for "O=C(O)Cc1ccccc1"
RESULT: -22.4

QUERY: Determine from records and report max response for "C[C@H]1C(=O)O[C@@H]2CCN3CC=C(COC(=O)[C@](C)(O)[C@]1(C)O)[C@H]23"
RESULT: -23.7

QUERY: Determine from records and report max response for "CCCOC(=O)Cc1ccc(OCC(=O)N(CC)CC)c(OC)c1"
RESULT: -7.4

QUERY: Determine from records and report max response for "CCCN(CCC)CCc1c[nH]c2ccccc12"
RESULT: -1.07

QUERY: Determine from records and report max response for "CN1CCC(N(Cc2ccccc2)c2ccccc2)CC1"
RESULT: -21.6

QUERY: Determine from records and report max response for "NCc1cccnc1"
RESULT: -13.7

QUERY: Determine from records and report max response for CC(C)NCC(O)c1ccc(N)c(C#N)c1 (centres undefined)
RESULT: 3.52

QUERY: Determine from records and report max response for COc1cc(N)c(Cl)cc1C(=O)NC1CN2CCC1CC2 (centres undefined)
RESULT: -0.63

QUERY: Determine from records and report max response for COCC(=O)N(c1c(C)cccc1C)C(C)C(=O)OC (centres undefined)
RESULT: 1.66

QUERY: Determine from records and report max response for "OC(c1ccccc1)(c1ccccc1)C1CCNCC1"
RESULT: 4.48

QUERY: Determine from records and report max response for "COc1cc(CC#N)cc(OC)c1OC"
RESULT: -2.26

QUERY: Determine from records and report max response for "C[C@]12CC[C@H]3[C@@H](CC=C4C[C@@H](O)CC[C@@]43C)[C@@H]1CC[C@@H]2O"
RESULT: -19.9

QUERY: Determine from records and report max response for "O=C(O)CCCCCCNC1c2ccccc2CCc2ccccc21"
RESULT: -2

QUERY: Determine from records and report max response for CNC(=O)NC(O)C(Cl)(Cl)Cl (centres undefined)
RESULT: 2.85

QUERY: Determine from records and report max response for "C1CN2CCC1CC2"
RESULT: -5.27

QUERY: Determine from records and report max response for CNC(C)Cc1ccccc1OC (centres undefined)
RESULT: -10.9

QUERY: Determine from records and report max response for "Oc1ccc2[nH]cc(CCCCN3CC=C(c4ccccc4)CC3)c2c1"
RESULT: 4.19

QUERY: Determine from records and report max response for CC(C(O)c1ccccc1)N(C)C/C=C/c1ccccc1 (centres undefined)
RESULT: -8.13

QUERY: Determine from records and report max response for "Cc1cccc(Cc2cnc[nH]2)c1C"
RESULT: -4.56

QUERY: Determine from records and report max response for COc1ccc(OC)c(CC(C)N)c1 (centres undefined)
RESULT: -3.68

QUERY: Determine from records and report max response for "CCN(CC)Cc1nccn1-c1ccc([N+](=O)[O-])cc1C(=O)c1ccccc1Cl"
RESULT: -12.2

QUERY: Determine from records and report max response for CCCCC1C(=O)NC(=O)N(C2CCCCC2)C1=O (centres undefined)
RESULT: -13.7

QUERY: Determine from records and report max response for "C[C@H](CN1CCOCC1)C(C(=O)N1CCCC1)(c1ccccc1)c1ccccc1"
RESULT: -21.1

QUERY: Determine from records and report max response for "c1ccc2nc(N3CCNCC3)ccc2c1"
RESULT: -2.05

QUERY: Determine from records and report max response for CNC(C)Cc1ccc2c(c1)OCO2 (centres undefined)
RESULT: 4.98
